tested on: MS2 coat protein; assay: apparent KD of MS2 coat protein; designed switch direction (-1 OFF switch, 1 ON switch): -1; higher = weaker reporter binding; conditions: Eterna round: R98; input ligand: none
Please mark 1.0 if the recorded apparent KD of MS2 coat protein is equal to or greater than 30 nM, and 0.0 if it falls below.

Recorded results for 7 sequences are shown here.
| Sequence Data | Tested Target | Assigned Category |
| --- | --- | --- |
| GGUUGUUACGCAGGAUAUUGCCAACAGGCAGUGGGAUAUCCGAAAGGAGAAGGUUCGCCAACAGGCGAGAAGGGCGGGUUAACC [pwkr exNG2 2xF7 2FMN.10.7] | MS2 coat protein | 1.0 |
| AACCUGACAUAAUAAUGUAGAAAUACAUGAGGAUCACCCAUGUAGGAUAUGCAGUGGAAUACACUGCAGAAGGACAUAGUCAGG [Exclusion NG 3/8-B1] | MS2 coat protein | 0.0 |
| GGAUAACAUGUAGGAUAUCCAGCAUUGACCAUCGGAGAAGGACAUGAGGAUCACCCAUGUACCGAUACAAUGGAAUAAGGGAAU [xclu_NG1_cac3] | MS2 coat protein | 0.0 |
| ACAUGGAAGCGAGGAUAUGCGGCGGAUUUAAACGCAGAAGGCGUUUAUUUAACUCGCAAUAACAUGAGGAUCACCCAUGUAUAA [AK-NGROCr2-ExNG1-5.1] | MS2 coat protein | 1.0 |
| UGUAAAAUUGAUCCUGCAAGUACAUGAGGAUCACCCAUGUGCUAGGAUAUCGCUCAGCUAAAGACCGAGAAGGAGCACAAUGUA [Adiraat] | MS2 coat protein | 0.0 |
| GAUACAUAGCAAGGAUAUCCACAUGAGGAUCACCCAUGUGCGUAAUCUGGGCGGUGGAAGAAAGUGGAGAAGGUGUUAGGUUGA [Atia] | MS2 coat protein | 1.0 |
| CUGGUGAUGUAAGGAUAUGCUGAGGAUAACUCAGCAGAAGGUACAUGAGGAUCACCCAUGUAAAUGAAAGAUAAUAAACACCAG [Excusion NG 1/16-B2] | MS2 coat protein | 0.0 |

Turning now to a further sequence:
Enquiry: Quick check, apparent KD of MS2 coat protein >= 30 nM? UAAUAAUAAUAAUACGUCAAUUACAUGAGGAUCACCCAUGUAUAGGAUAUGCAGUGGAAUACACUGCAGAAGGAUACAAAGACG [Exclusion NG 3/3-B1]
Return: 0.0
